System: MDA-MB-231
Assay: Antiproliferative activity against human MDA-MB-231 cells incubated for 48 hrs by MTT assay
Assay type: functional, cell-based
Settings: MDA-MB-231, 48 h
test-readout: IC50 (µM)

Use these answered entries as a reference point.
CS(=O)(=O)c1ccc(Nc2nccc(Nc3nc4ccc(F)cc4s3)n2)cc1	2.08
COc1ccc2nc(Nc3nc(Nc4ccc(S(N)(=O)=O)cc4)ncc3F)sc2c1	26.6
Cc1ccc2nc(Nc3nc(Nc4ccc(S(N)(=O)=O)cc4)ncc3F)sc2c1	6.39
NS(=O)(=O)c1ccc(Nc2ncc(F)c(Nc3nc4ccccc4s3)n2)cc1	22.6
CS(=O)(=O)c1ccc(Nc2ncc(F)c(Nc3nc4ccc(Cl)cc4s3)n2)cc1	11.1

[A] Cc1ccc2nc(Nc3ccnc(Nc4ccc(S(N)(=O)=O)cc4)n3)sc2c1
[B] Cc1ccc2nc(Nc3nc(Nc4ccc(S(C)(=O)=O)cc4)ncc3F)sc2c1
Enquiry: Between the two listed entries A and B , which has its IC50 at the higher number? When you have decided, please share the label of that item.
Return: B

====

Tested on: PC-3
Experiment: Antiproliferative activity against human PC3 cells incubated for 48 hrs by MTT assay
Assay type: functional, cell-based
Conditions: PC-3, 48 h
pIC50: −log10 of the molar value.
test-readout: pIC50

Use these answered entries as a reference point.
NS(=O)(=O)c1ccc(Nc2nccc(Nc3nc4ccc(F)cc4s3)n2)cc1	6.04
CS(=O)(=O)c1ccc(Nc2nccc(Nc3nc4ccccc4s3)n2)cc1	5.77
Cc1ccc2nc(Nc3nc(Nc4ccc(S(N)(=O)=O)cc4)ncc3C)sc2c1	5.57

[A] CS(=O)(=O)c1ccc(Nc2ncc(F)c(Nc3nc4ccccc4s3)n2)cc1
[B] Cc1ccc2nc(Nc3ccnc(Nc4ccc(S(N)(=O)=O)cc4)n3)sc2c1
Enquiry: Between the two listed entries A and B , which has its pIC50 at the higher number? When you have decided, please share the label of that item.
Return: B
(B: 5.79, A: 5.55)

====

Measured IC50, listed per entry.
Test system: MDA-MB-231
Assay: Antiproliferative activity against human MDA-MB-231 cells incubated for 48 hrs by MTT assay
Format: functional, cell-based
Conditions: MDA-MB-231, 48 h

Cc1cnc(Nc2ccc(Cl)cc2)nc1Nc1nc2ccccc2s1	> 50 µM
CS(=O)(=O)c1ccc(Nc2nccc(Nc3nc4ccc(Cl)cc4s3)n2)cc1	> 50 µM

Now take the following compound into account.
Enquiry: // lookup IC50 | system=MDA-MB-231 | key= COc1cccc(Nc2ncc(C)c(Nc3nc4ccccc4s3)n2)c1
Return: > 50 µM

====

System: MDA-MB-231
Assay: Antiproliferative activity against human MDA-MB-231 cells incubated for 48 hrs by MTT assay
Assay type: functional, cell-based
Details: MDA-MB-231, 48 h
test-readout: IC50 (µM)

CS(=O)(=O)c1ccc(Nc2ncc(F)c(Nc3nc4ccc(F)cc4s3)n2)cc1	8.9

[1] Cc1cnc(Nc2ccc(S(N)(=O)=O)cc2)nc1Nc1nc2ccc(F)cc2s1
[2] COc1ccc2nc(Nc3nc(Nc4ccc(S(C)(=O)=O)cc4)ncc3F)sc2c1
Enquiry: Between the two listed entries 1 and 2 , which has its IC50 at the higher number? When you have decided, please share the label of that item.
Return: 1
(1: 7.58 µM, 2: 4.74 µM)

====

Test system: MCF7
Test: Antiproliferative activity against human MCF7 cells incubated for 48 hrs by MTT assay
Type: functional, cell-based
Details: MCF7, 48 h
Measured IC50, listed per entry.

Use these answered entries as a reference point.
COc1ccc2nc(Nc3ccnc(Nc4ccc(S(C)(=O)=O)cc4)n3)sc2c1	> 50 µM
Cc1cnc(Nc2ccc(S(C)(=O)=O)cc2)nc1Nc1nc2ccc(F)cc2s1	3.26 µM
Cc1ccc2nc(Nc3ccnc(Nc4ccc(S(N)(=O)=O)cc4)n3)sc2c1	5.74 µM

Enquiry: // lookup IC50 | system=MCF7 | key= CS(=O)(=O)c1ccc(Nc2ncc(F)c(Nc3nc4ccc(F)cc4s3)n2)cc1
Return: > 50 µM

Enquiry: // lookup IC50 | system=MCF7 | key= Cc1cnc(Nc2ccc(S(N)(=O)=O)cc2)nc1Nc1nc2ccc(F)cc2s1
Return: > 50 µM

Enquiry: // lookup IC50 | system=MCF7 | key= NS(=O)(=O)c1ccc(Nc2nccc(Nc3nc4ccccc4s3)n2)cc1
Return: 15.3 µM

Enquiry: // lookup IC50 | system=MCF7 | key= Cc1cnc(Nc2ccc(S(N)(=O)=O)cc2)nc1Nc1nc2ccccc2s1
Return: > 50 µM

Enquiry: // lookup IC50 | system=MCF7 | key= Cc1ccc2nc(Nc3nc(Nc4ccc(S(C)(=O)=O)cc4)ncc3F)sc2c1
Return: > 50 µM

Enquiry: // lookup IC50 | system=MCF7 | key= Cc1cnc(Nc2ccc(N3CCCCC3)cc2)nc1Nc1nc2ccccc2s1
Return: > 50 µM

Enquiry: // lookup IC50 | system=MCF7 | key= COc1ccc2nc(Nc3nc(Nc4ccc(S(C)(=O)=O)cc4)ncc3F)sc2c1
Return: 5.85 µM

Enquiry: // lookup IC50 | system=MCF7 | key= COc1ccc2nc(Nc3nc(Nc4ccc(S(N)(=O)=O)cc4)ncc3F)sc2c1
Return: > 50 µM
